Tested on: vaccinia virus
Assay: microbe, parasite or virus in culture
Format: cell-based
Settings: Orthopoxvirus vaccinia, HSF, read-out: ID50, Vaccinia (HSF)
Observed Property: log10(IC50) (log10 of the value in µg/mL)
Please interpret these as log10 of IC50 where IC50 is in µg/mL.

Just so you know, measured log10(IC50) for O=c1[nH]c(=O)n([C@H]2C[C@H](O)[C@@H](CO)O2)cc1I [5-iodo-2'-deoxyuridine] came out at -0.70

Just so you know, measured log10(IC50) for O=c1[nH]c(=O)n([C@H]2C[C@H](O)[C@@H](CO)O2)cc1/C=C/Br [E-5-(2-bromovinyl)-2'-deoxyuridine] came out at -0.15

Just so you know, measured log10(IC50) for Nc1nc(=O)n([C@H]2C[C@H](O)[C@@H](CO)O2)cc1/C=C/Br [E-5-(2-bromovinyl)-2'-deoxycytidine] came out at 0.30

Just so you know, measured log10(IC50) for O=c1[nH]c(=O)n([C@H]2C[C@H](O)[C@@H](CO)O2)cc1/C=C/I [E-5-(2-iodovinyl)-2'-deoxyuridine] came out at 0.00

Just so you know, measured log10(IC50) for Nc1nc(=O)n([C@H]2C[C@H](O)[C@@H](CO)O2)cc1/C=C/I [E-5-(2-iodovinyl)-2'-deoxycytidine] came out at 0.85

----------
Assay: Antimetabolic activity in PRK cell cultures: (2-^14 C)UdR incorporation into cell DNA (Test 3)
Format: cell-based
Conditions: rabbit, PRK cells, read-out: ID50, (2-^14 C)UdR incorporation into cell DNA
Observed Property: IC50 at 16 h (mg/L)
Field format: number, assumed mg/L, no unit text.

Just so you know, measured IC50 at 16 h for O=c1[nH]c(=O)n([C@H]2C[C@H](O)[C@@H](CO)O2)cc1/C=C/I [E-5-(2-iodovinyl)-2'-deoxyuridine] came out at 150

Just so you know, measured IC50 at 16 h for O=c1[nH]c(=O)n([C@H]2C[C@H](O)[C@@H](CO)O2)cc1/C=C/Br [E-5-(2-bromovinyl)-2'-deoxyuridine] came out at 100

----------
System: Herpes simplex-1 strain KOS
Test: Inhibition of cytopathic effect of herpes simplex-1 virus strain KOS in PRK and HSF cell cultures (Test 1)
Type: cell-based
Conditions: PRK cells, average of three experiments, read-out: ID50, Herpes simplex-1 strain KOS (PRK)
Observed Property: IC50 (µg/mL)
Field format: number, assumed µg/mL, no unit text.

I looked up "O=c1[nH]c(=O)n([C@H]2C[C@H](O)[C@@H](CO)O2)cc1/C=C/I" and its IC50 for Herpes simplex-1 strain KOS was 0.01

I looked up "O=c1[nH]c(=O)n([C@H]2C[C@H](O)[C@@H](CO)O2)cc1I" and its IC50 for Herpes simplex-1 strain KOS was 0.1

I looked up "Nc1nc(=O)n([C@H]2C[C@H](O)[C@@H](CO)O2)cc1/C=C/Br" and its IC50 for Herpes simplex-1 strain KOS was 0.07

I looked up "Nc1nc(=O)n([C@H]2C[C@H](O)[C@@H](CO)O2)cc1/C=C/I" and its IC50 for Herpes simplex-1 strain KOS was 0.1

I looked up "O=c1[nH]c(=O)n([C@H]2C[C@H](O)[C@@H](CO)O2)cc1/C=C/Br" and its IC50 for Herpes simplex-1 strain KOS was 0.007

----------
Assay: Antimetabolic activity in PRK cell cultures: (methyl-^3 H)TdR incorporation into cell DNA (Test 3)
Format: cell-based
Settings: rabbit, PRK cells, read-out: ID50, (Methyl-^3 H)TdR incorporation into cell DNA
Procedure: To this end, the incorporation of certain radiolabelled DNA precursors into DNA of the cells, and the effect of 5-(2-halogenovinyl)-2'-deoxycytidines and related compounds thereon, was tested. The technique has been described by De Clercq et al in Biochemical Pharmacology, 26, 794-797 (1977) and by De Clercq et al in Molecular Pharmacology, 14, 422-430, (1978). The DNA precursors as used were (methyl-^3 H), (2'-deoxythymidine ) (TdR), and (2-^14 C) (2'-deoxyuridine) (UdR). […]
Give IC50 at 16 h for every item shown.

Just so you know, measured IC50 at 16 h for Nc1nc(=O)n([C@H]2C[C@H](O)[C@@H](CO)O2)cc1/C=C/Br [E-5-(2-bromovinyl)-2'-deoxycytidine] came out at > 200 µg/mL

Just so you know, measured IC50 at 16 h for O=c1[nH]c(=O)n([C@H]2C[C@H](O)[C@@H](CO)O2)cc1/C=C/I [E-5-(2-iodovinyl)-2'-deoxyuridine] came out at 80 µg/mL

Just so you know, measured IC50 at 16 h for Nc1nc(=O)n([C@H]2C[C@H](O)[C@@H](CO)O2)cc1/C=C/I [E-5-(2-iodovinyl)-2'-deoxycytidine] came out at > 200 µg/mL

Just so you know, measured IC50 at 16 h for O=c1[nH]c(=O)n([C@H]2C[C@H](O)[C@@H](CO)O2)cc1/C=C/Br [E-5-(2-bromovinyl)-2'-deoxyuridine] came out at 100 µg/mL
